# ASSAY_NOTES: Levels of N-EtFOSE and metabolites in liver and serum
# Format: in vivo, female Sprague-Dawley rats
# REPORTED_CONDITIONS: female, Sprague-Dawley, rat, in vivo
READOUT_TYPE: Kp at 3 days after the last dose

In [3]: df
Out[3]:
                                   molecule                      readout_type  observed_value
0  NS(=O)(=O)C(F)(F)C(F)(F)C(F)(F)C(F)(F)C(F)(F)C(F)(F)C(F)(F)C(F)(F)F [FOSA, perfluorooctanesulfonamide]  Kp at 3 days after the last dose            10.1

Each recorded value in this set is attributed to paper PMC2755535.
